- Assayed Target: Recombinant human MASP2 enzyme (fragment corresponding to amino acids 297-686, C-terminal His Tag) (human, UniProt O00187 297-686)
- Sequence (O00187 other isoform, or with tags, fused parts or gaps limits assumed): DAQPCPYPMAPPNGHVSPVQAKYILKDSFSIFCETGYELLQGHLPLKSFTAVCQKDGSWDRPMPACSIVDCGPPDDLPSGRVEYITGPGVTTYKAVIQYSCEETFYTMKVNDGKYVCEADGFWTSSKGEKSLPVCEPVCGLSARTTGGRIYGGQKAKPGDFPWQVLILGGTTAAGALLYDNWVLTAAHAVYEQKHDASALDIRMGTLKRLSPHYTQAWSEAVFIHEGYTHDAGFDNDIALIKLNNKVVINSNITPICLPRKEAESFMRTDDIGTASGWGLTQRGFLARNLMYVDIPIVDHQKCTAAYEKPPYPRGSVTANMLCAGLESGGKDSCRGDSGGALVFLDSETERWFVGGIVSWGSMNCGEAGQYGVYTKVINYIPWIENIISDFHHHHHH
- Assay Text: cell-based or functional assay
Numbered stars: 1 amine (or outer) side, 2 acyl side, 3 side chain; on linkers, the order of the positions; unused ones are H or OH. Bridge positions count the residues as written; N and C are the ends. Square brackets hold non-standard residues; d marks the D form. Ends that are not written are not given here. X13 = (2S)‑2‑amino‑3‑(1-methylcyclopropyl)propanoic acid, CC1(C[C@H](N[*:1])C(=O)[*:2])CC1; Pro(4-spirocPr) = O=C(O)[C@@H]1CC2(CC2)CN1; Oic = O=C(O)[C@@H]1C[C@@H]2CCCC[C@@H]2N1; tBuAla = CC(C)(C)C[C@H](N)C(=O)O; Pen = CC(C)(S)[C@H](N)C(=O)O; 4Amb = NCc1ccc(C(=O)O)cc1; NMeC = CN[C@@H](CS)C(=O)O; NMeA = CN[C@@H](C)C(=O)O; PEG2 = NCCOCCOCCC(=O)O; Ahx = NCCCCCC(=O)O; Sar = CNCC(=O)O
Parameter Measured: human MASP2 IC50
Please provide the amount together with its unit, number first.

Ask: Which human MASP2 IC50 is reported for this binder? [dA]ICSRSLP[Oic]I[Pen]IP-OH (disulfide 3-11; N-terminus assumed; SMILES CC[C@H](C)[C@H](NC(=O)[C@@H](C)N)C(=O)N[C@H]1CSSC(C)(C)[C@@H](C(=O)N[C@H](C(=O)N2CCC[C@H]2C(=O)O)[C@@H](C)CC)NC(=O)[C@H]([C@@H](C)CC)NC(=O)[C@@H]2C[C@@H]3CCCC[C@@H]3N2C(=O)[C@@H]2CCCN2C(=O)[C@H](CC(C)C)NC(=O)[C@H](CO)NC(=O)[C@H](CCCNC(=N)N)NC(=O)[C@H](CO)NC1=O) [aIC+SRSLP-(Oic)-I-(Pen)+IP-OH]
Result: 200 nM

Ask: Which human MASP2 IC50 is reported for this binder? [Sar]ICSRS[X13]P[Oic]I[Pen]IP-NH2 (disulfide 3-11; N-terminus assumed; SMILES CC[C@H](C)[C@H](NC(=O)CNC)C(=O)N[C@H]1CSSC(C)(C)[C@@H](C(=O)N[C@H](C(=O)N2CCC[C@H]2C(N)=O)[C@@H](C)CC)NC(=O)[C@H]([C@@H](C)CC)NC(=O)[C@@H]2C[C@@H]3CCCC[C@@H]3N2C(=O)[C@@H]2CCCN2C(=O)[C@H](CC2(C)CC2)NC(=O)[C@H](CO)NC(=O)[C@H](CCCNC(=N)N)NC(=O)[C@H](CO)NC1=O) [((N-Me)G)-IC+SRS-((2S)-2-amino-3-(1-methylcyclopropyl)propanoic acid)-P-(Oic)-I-(Pen)+IP-NH2]
Result: 57 nM

Ask: Which human MASP2 IC50 is reported for this binder? [Ahx]ICSRS[tBuAla]PPI[Pen]IP-NH2 (disulfide 3-11; N-terminus assumed; SMILES CC[C@H](C)[C@H](NC(=O)CCCCCN)C(=O)N[C@H]1CSSC(C)(C)[C@@H](C(=O)N[C@H](C(=O)N2CCC[C@H]2C(N)=O)[C@@H](C)CC)NC(=O)[C@H]([C@@H](C)CC)NC(=O)[C@@H]2CCCN2C(=O)[C@@H]2CCCN2C(=O)[C@H](CC(C)(C)C)NC(=O)[C@H](CO)NC(=O)[C@H](CCCNC(=N)N)NC(=O)[C@H](CO)NC1=O) [(Ahx)-IC+SRS-((tBu)A)-PPI-(Pen)+IP-NH2]
Result: 16 nM

Ask: Which human MASP2 IC50 is reported for this binder? [4Amb]ICSRS[tBuAla]PPI[NMeC]IPD-NH2 (disulfide 3-11; N-terminus assumed; SMILES CC[C@H](C)[C@H](NC(=O)c1ccc(CN)cc1)C(=O)N[C@H]1CSSC[C@@H](C(=O)N[C@H](C(=O)N2CCC[C@H]2C(=O)N[C@@H](CC(=O)O)C(N)=O)[C@@H](C)CC)N(C)C(=O)[C@H]([C@@H](C)CC)NC(=O)[C@@H]2CCCN2C(=O)[C@@H]2CCCN2C(=O)[C@H](CC(C)(C)C)NC(=O)[C@H](CO)NC(=O)[C@H](CCCNC(=N)N)NC(=O)[C@H](CO)NC1=O) [(4-(Aminomethyl)benzoic acid)-IC+SRS-((tBu)A)-PPI-((N-Me)C)+IPD-NH2]
Result: 35 nM

Ask: Which human MASP2 IC50 is reported for this binder? AICSRSLP[Pro(4-spirocPr)]ICIPD-NH2 (disulfide 3-11; N-terminus assumed; SMILES CC[C@H](C)[C@H](NC(=O)[C@H](C)N)C(=O)N[C@H]1CSSC[C@@H](C(=O)N[C@H](C(=O)N2CCC[C@H]2C(=O)N[C@@H](CC(=O)O)C(N)=O)[C@@H](C)CC)NC(=O)[C@H]([C@@H](C)CC)NC(=O)[C@@H]2CC3(CC3)CN2C(=O)[C@@H]2CCCN2C(=O)[C@H](CC(C)C)NC(=O)[C@H](CO)NC(=O)[C@H](CCCNC(=N)N)NC(=O)[C@H](CO)NC1=O) [AIC+SRSLP-((6S)-5-Azaspiro[2.4]heptane-6-carboxylic acid)-IC+IPD-NH2]
Result: 33 nM

Ask: Which human MASP2 IC50 is reported for this binder? [Sar]ICSRS[tBuAla]PPI[Pen]IP-NH2 (disulfide 3-11; N-terminus assumed; SMILES CC[C@H](C)[C@H](NC(=O)CNC)C(=O)N[C@H]1CSSC(C)(C)[C@@H](C(=O)N[C@H](C(=O)N2CCC[C@H]2C(N)=O)[C@@H](C)CC)NC(=O)[C@H]([C@@H](C)CC)NC(=O)[C@@H]2CCCN2C(=O)[C@@H]2CCCN2C(=O)[C@H](CC(C)(C)C)NC(=O)[C@H](CO)NC(=O)[C@H](CCCNC(=N)N)NC(=O)[C@H](CO)NC1=O) [((N-Me)G)-IC+SRS-((tBu)A)-PPI-(Pen)+IP-NH2]
Result: 44 nM

Ask: Which human MASP2 IC50 is reported for this binder? [Sar]ICSRS[tBuAla]PPI[Pen]IP[PEG2]-NH2 (disulfide 3-11; N-terminus assumed; SMILES CC[C@H](C)[C@H](NC(=O)CNC)C(=O)N[C@H]1CSSC(C)(C)[C@@H](C(=O)N[C@H](C(=O)N2CCC[C@H]2C(=O)NCCOCCOCCC(N)=O)[C@@H](C)CC)NC(=O)[C@H]([C@@H](C)CC)NC(=O)[C@@H]2CCCN2C(=O)[C@@H]2CCCN2C(=O)[C@H](CC(C)(C)C)NC(=O)[C@H](CO)NC(=O)[C@H](CCCNC(=N)N)NC(=O)[C@H](CO)NC1=O) [((N-Me)G)-IC+SRS-((tBu)A)-PPI-(Pen)+IP-(PEG1(10 atoms))-NH2]
Result: 74 nM

Ask: Which human MASP2 IC50 is reported for this binder? [NMeA]ICSRSLP[Oic]I[Pen]IPE-OH (disulfide 3-11; N-terminus assumed; SMILES CC[C@H](C)[C@H](NC(=O)[C@H](C)NC)C(=O)N[C@H]1CSSC(C)(C)[C@@H](C(=O)N[C@H](C(=O)N2CCC[C@H]2C(=O)N[C@@H](CCC(=O)O)C(=O)O)[C@@H](C)CC)NC(=O)[C@H]([C@@H](C)CC)NC(=O)[C@@H]2C[C@@H]3CCCC[C@@H]3N2C(=O)[C@@H]2CCCN2C(=O)[C@H](CC(C)C)NC(=O)[C@H](CO)NC(=O)[C@H](CCCNC(=N)N)NC(=O)[C@H](CO)NC1=O) [((N-Me)A)-IC+SRSLP-(Oic)-I-(Pen)+IPE-OH]
Result: 170 nM
